SYSTEM: nuclear factor-kappa B (NF-kB)-inducing kinase (NIK) (Homo sapiens, UniProt Q99558)
Construct: made in house; host or cells: baculovirus-infected insect cells
Sequence (Q99558 whole entry): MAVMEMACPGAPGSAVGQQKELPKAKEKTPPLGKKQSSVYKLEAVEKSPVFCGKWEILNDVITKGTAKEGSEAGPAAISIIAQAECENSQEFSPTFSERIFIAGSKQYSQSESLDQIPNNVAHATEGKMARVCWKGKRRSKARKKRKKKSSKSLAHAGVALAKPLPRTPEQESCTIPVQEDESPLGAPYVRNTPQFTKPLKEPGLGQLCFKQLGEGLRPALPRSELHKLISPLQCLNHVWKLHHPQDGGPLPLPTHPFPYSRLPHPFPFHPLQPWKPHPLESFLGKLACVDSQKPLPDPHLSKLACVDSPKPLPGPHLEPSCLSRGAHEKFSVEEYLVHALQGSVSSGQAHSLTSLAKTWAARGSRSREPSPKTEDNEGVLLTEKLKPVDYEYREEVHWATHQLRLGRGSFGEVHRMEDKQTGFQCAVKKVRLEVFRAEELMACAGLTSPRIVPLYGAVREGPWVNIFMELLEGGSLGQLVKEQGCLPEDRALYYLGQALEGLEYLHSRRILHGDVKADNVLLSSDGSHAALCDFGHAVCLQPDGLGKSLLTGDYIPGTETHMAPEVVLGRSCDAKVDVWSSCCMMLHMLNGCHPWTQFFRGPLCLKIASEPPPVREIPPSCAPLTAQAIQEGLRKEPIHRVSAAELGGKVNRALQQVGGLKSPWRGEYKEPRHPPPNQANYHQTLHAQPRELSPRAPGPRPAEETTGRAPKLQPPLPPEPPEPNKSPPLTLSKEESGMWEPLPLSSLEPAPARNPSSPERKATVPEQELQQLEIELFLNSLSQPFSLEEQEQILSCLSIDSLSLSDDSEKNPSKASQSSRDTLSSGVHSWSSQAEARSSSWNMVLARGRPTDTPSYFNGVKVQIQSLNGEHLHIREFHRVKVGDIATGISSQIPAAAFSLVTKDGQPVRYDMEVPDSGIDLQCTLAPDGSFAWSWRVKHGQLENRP
TEST_SUMMARY: NIK Enzyme Inhibition Assay (Transcreener ADP assay)
Assay type: biochemical
CONDITION_SUMMARY: purified NIK 0.2-1 nM, 10 uM ATP, fluorescence polarization, Morrison's quadratic equation; read-out: inhibitory value (Ki) for NIK
pKi: −log10 of the molar value.
ENDPOINT: pKi

> print(dat)
                                    molecule  endpoint  value.operator  measured.value
 1  Cc1cc([C@](C)(O)C#Cc2ccc3c(CN4CCOCC4)nn(-c4ccnc(N)n4)c3c2)no1 [Example T1.1-38]       pKi               =            8.70
 2  Cc1nn(-c2ccnc(N)n2)c2cc(C#CC3(O)CCN(C)CC3)ccc12 [Example T1-69]       pKi               ≤            5.30
 3  CC(O)(C#Cc1ccc2nc(C3CC3)n(-c3ccnc(N)n3)c2c1)c1nccs1 (stereo not shown) [Example T1-14]       pKi               =            8.16
 4  Cc1nn(-c2ccnc(N)n2)c2cc(C#C[C@](C)(O)c3nccs3)ccc12 [Example T1-49]       pKi               =            6.07
 5  CC(O)(C#Cc1ccc2cnn(-c3ccnc(N)n3)c2c1)c1ncco1 (stereo not shown) [Example T1-15]       pKi               =            9.49
 6  CC1(C(=O)Nc2cnc(N)nc2-n2ncc3ccc(C#CC(C)(O)c4nccs4)cc32)COC1 (stereo not shown) [Example T1-16]       pKi               =            7.57
 7  Cc1nc(C(C)(O)C#Cc2ccc3c(C)nn(-c4ccnc(N)n4)c3c2)no1 (stereo not shown) [Example T1-57]       pKi               =            8.70
 8  Cc1nc2ccc(C#CC3(O)CC4CCC3C4)cc2n1-c1ncnc(N)n1 (stereo not shown) [Example T1.1-110]       pKi               =            5.77
 9  CN(C)C(=O)c1nn(-c2ccnc(N)n2)c2cc(C#CC3(O)CCn4cncc43)ccc12 (stereo not shown) [Example T1.1-117]       pKi               ≤            5.30
10  CC(O)(C#Cc1ccc2nc(OCCO)n(-c3ccnc(N)n3)c2c1)c1ccc(F)cn1 (stereo not shown) [Example T1.1-108]       pKi               =            5.80
11  CC(C)(O)C#Cc1cc2c(cc1F)ncn2-c1ccnc(N)n1 [Example T1-40]       pKi               =            8.52
12  Cc1nn(-c2ccnc(N)n2)c2cc(C#CC(C)(O)CF)ccc12 (stereo not shown) [Example T1.1-52]       pKi               =            8.40
13  CN(C)C(=O)c1nn(-c2ccnc(N)n2)c2cc(C#CC(C)(O)c3cc(CO)on3)ccc12 (stereo not shown) [Example T1.1-26]       pKi               =            9.00
14  CC(O)(C#Cc1ccc2[nH]c(=O)n(-c3ccnc(N)n3)c2c1)c1nccs1 (stereo not shown) [Example T1-21]       pKi               =            9.52
15  Cc1nn(-c2ccnc(N)n2)c2cc(C#CC(C)(O)C(=O)N(C)C)ccc12 (stereo not shown) [Example T1.1-103]       pKi               =            6.50
16  Cc1nc([C@](C)(O)C#Cc2ccc3c(C(=O)N4CCC(F)CC4)nn(-c4nc(N)ncc4Cl)c3c2)no1 [Example T1.1-68]       pKi               =            8.05
